I'd be grateful if you could share measured Kd for these entries.
tgt: T1, MMP14 catalytic domain (UniProt P50281 112-285)
T1 construct: Matrix Metalloproteinase 14 (MMP14), catalytic domain; source: expressed recombinantly and purified as published before [12]
method-notes: enzyme activity (inhibition) assay with a fluorogenic substrate; various concentrations of N-TIMP2 pre-incubated 1 hour with MMP9 (0.2 nM) or MMP14 (0.5 nM) in 50 mM Tris-HCl, 0.15 M NaCl, 10 mM CaCl2, 0.02% Brij 35, pH 7.5, 37°C; fraction of enzyme activity fitted to a 1:1 binding model to give Kd
applied-conditions: both partners purified
Record the value in nM, omitting the unit from your answer.

-- ask State the recorded Kd for this entry: N-TIMP2 I35E (domain or fragment, human, UniProt P16035 27-153, looked up, TIMP2, human, N-terminal domain, residues 1-127) CSCSPVHPQQAFCNADVVIRAKAVSEKEVDSGNDEYGNPIKRIQYEIKQIKMFKGPEKDIEFIYTAPSSAVCGVSLDVGGKKEYLIAGKAEGDGKMHITLCDFIVPWDTLSTTQKKSLNHRYQMGCE
-- reply 5.4

-- ask State the recorded Kd for this entry: N-TIMP2 S68W (domain or fragment, human, UniProt P16035 27-153, looked up, TIMP2, human, N-terminal domain, residues 1-127) CSCSPVHPQQAFCNADVVIRAKAVSEKEVDSGNDIYGNPIKRIQYEIKQIKMFKGPEKDIEFIYTAPWSAVCGVSLDVGGKKEYLIAGKAEGDGKMHITLCDFIVPWDTLSTTQKKSLNHRYQMGCE
-- reply 0.91

-- ask State the recorded Kd for this entry: N-TIMP2 V6R (domain or fragment, human, UniProt P16035 27-153, looked up, TIMP2, human, N-terminal domain, residues 1-127; also called V06R) CSCSPRHPQQAFCNADVVIRAKAVSEKEVDSGNDIYGNPIKRIQYEIKQIKMFKGPEKDIEFIYTAPSSAVCGVSLDVGGKKEYLIAGKAEGDGKMHITLCDFIVPWDTLSTTQKKSLNHRYQMGCE
-- reply 1.3

-- ask State the recorded Kd for this entry: N-TIMP2 V71N (domain or fragment, human, UniProt P16035 27-153, looked up, TIMP2, human, N-terminal domain, residues 1-127) CSCSPVHPQQAFCNADVVIRAKAVSEKEVDSGNDIYGNPIKRIQYEIKQIKMFKGPEKDIEFIYTAPSSANCGVSLDVGGKKEYLIAGKAEGDGKMHITLCDFIVPWDTLSTTQKKSLNHRYQMGCE
-- reply 6.5

-- ask State the recorded Kd for this entry: N-TIMP2 S68Y (domain or fragment, human, UniProt P16035 27-153, looked up, TIMP2, human, N-terminal domain, residues 1-127) CSCSPVHPQQAFCNADVVIRAKAVSEKEVDSGNDIYGNPIKRIQYEIKQIKMFKGPEKDIEFIYTAPYSAVCGVSLDVGGKKEYLIAGKAEGDGKMHITLCDFIVPWDTLSTTQKKSLNHRYQMGCE
-- reply 1.1

-- ask State the recorded Kd for this entry: N-TIMP2 H97R (domain or fragment, human, UniProt P16035 27-153, looked up, TIMP2, human, N-terminal domain, residues 1-127) CSCSPVHPQQAFCNADVVIRAKAVSEKEVDSGNDIYGNPIKRIQYEIKQIKMFKGPEKDIEFIYTAPSSAVCGVSLDVGGKKEYLIAGKAEGDGKMRITLCDFIVPWDTLSTTQKKSLNHRYQMGCE
-- reply 0.32

Hello, the source for this data is paper PMC3977929, in case you need it.
